- system-tested: Rlig1-AMP (Homo sapiens)
- Construct: made in house; host or cells: E. coli BL21 (DE3), pET15b-Rlig1
- Sequence (Q8N999 whole entry): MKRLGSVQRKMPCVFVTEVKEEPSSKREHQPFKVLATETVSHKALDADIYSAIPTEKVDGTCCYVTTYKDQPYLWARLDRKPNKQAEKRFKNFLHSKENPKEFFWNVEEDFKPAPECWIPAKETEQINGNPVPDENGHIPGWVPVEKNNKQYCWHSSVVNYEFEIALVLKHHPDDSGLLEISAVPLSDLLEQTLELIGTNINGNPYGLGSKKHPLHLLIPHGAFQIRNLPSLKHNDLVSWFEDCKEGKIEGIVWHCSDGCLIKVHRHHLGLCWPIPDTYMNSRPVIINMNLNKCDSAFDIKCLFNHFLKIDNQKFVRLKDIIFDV
- method-summary: FRET-based high-throughput screening of inhibitors for Rlig1-AMP
- Format: biochemical
- measurement-context: HTS hits; with enzyme
Task for the reader: assign each of the following compounds its reported Raw data [w Enyzm].
Write the value as a bare number.

Task: Would you mind telling me what Raw data [w Enyzm] value was observed for CCCCC(=O)OCC(=O)[C@]1(O)Cc2c(O)c3c(c(O)c2[C@@H](O[C@H]2C[C@H](NC(=O)C(F)(F)F)[C@H](O)[C@H](C)O2)C1)C(=O)c1c(OC)cccc1C3=O [Valrubicin] ?
Output: 2541

Task: Would you mind doing COS(=O)(=O)[O-].C[n+]1c2ccccc2nc2ccccc21 [Phenazine (methylsulfate)] as well?
Output: 2478

Task: Would you mind doing COc1cccc2c1C(=O)c1c(O)c3c(c(O)c1C2=O)C[C@@](O)(C(C)=O)C[C@@H]3O[C@H]1C[C@H](NC(=O)OCc2ccc(O[C@@H]3O[C@H](CO)[C@H](O)[C@H](O)[C@H]3O)c([N+](=O)[O-])c2)[C@H](O)[C@H](C)O1 [Daun02] as well?
Output: 2111

Task: Would you mind doing COCC(=O)O[C@]1(CCN(C)CCCc2nc3ccccc3[nH]2)CCc2cc(F)ccc2[C@@H]1C(C)C.Cl.Cl [Mibefradil (dihydrochloride)] as well?
Output: 9508

Task: Would you mind doing Cl.Cl.O=C1c2c(O)ccc(O)c2C(=O)c2c(NCCNCCO)ccc(NCCNCCO)c21 [Mitoxantrone (dihydrochloride)] as well?
Output: 3238

Task: Would you mind doing COc1cccc2c1C(=O)c1c(O)c3c(c(O)c1C2=O)C[C@@](O)(C(=O)CO)C[C@@H]3O[C@H]1C[C@H](N)[C@H](O[C@@H]2CCCCO2)[C@H](C)O1.Cl [Pirarubicin (Hydrochloride)] as well?
Output: 2238

Task: Would you mind doing O=C1c2ccccc2C(=O)c2c1cc(S(=O)(=O)Nc1ccc(C(F)(F)F)cc1)c(O)c2O [PGMI-004A] as well?
Output: 2222

Task: Would you mind doing CC(C)=CC[C@H](O)C1=CC(=O)c2c(O)ccc(O)c2C1=O [(-)-Alkannin] as well?
Output: 3885

Task: Would you mind doing COc1cccc2c1C(=N)c1c(O)c3c(c(O)c1C2=O)C[C@@](O)(C(C)=O)C[C@@H]3O[C@H]1C[C@H](N)[C@H](O)[C@H](C)O1 [5-Iminodaunorubicin] as well?
Output: 2360

Task: Would you mind doing Cl.Cl.Cn1cc(NC(=O)c2cc(NC(=O)CN=C(N)N)cn2C)cc1C(=O)NCCC(=N)N [Netropsin (dihydrochloride)] as well?
Output: 8749

Task: Would you mind doing Cl[TeH]1(Cl)(Cl)OCCO1 [Ossirene] as well?
Output: 4805

Task: Would you mind doing C/C=C/c1cc(OC)c(OC)cc1OC [alpha-Asarone] as well?
Output: 8891

Task: Would you mind doing Cn1nc(-c2ccccc2)nc2c(=O)n(C)c(=O)nc1-2 [3-Phenyltoxoflavin] as well?
Output: 15668
